This section presents molecules with their documented MIC, A. baumannii ATCC 19606 values.
- System: A. baumannii ATCC 19606
- Type: cell-based, Acinetobacter baumannii
- Stated Conditions: ATCC 19606, 18 h
Square brackets hold non-standard residues; d marks the D form. Peptide text beside a SMILES is read from it. ξ: configuration not given here. ξαMeGly(pent-4-enyl) = C=CCCCC(C)(N)C(=O)O

Example cases with answers are listed next.
molecule="C=CCCCC(C)(NC(=O)[C@H](CCCCN)NC(=O)[C@@H](N)CC(C)C)C(=O)N[C@@H](CC(C)C)C(=O)N[C@@H](CCCCN)C(=O)N[C@@H](CCCCN)C(=O)N[C@@H](CC(C)C)C(=O)N[C@@H](CC(C)C)C(N)=O (some centres unmarked) [Feleucin-K64] (H-LK[ξαMeGly(pent-4-enyl)]LKKLL-NH2)" tgt="A. baumannii ATCC 19606" recorded_measurement="64 µg/mL"
molecule="C=CCCCC(C)(NC(=O)[C@H](CC(C)C)NC(=O)[C@H](CC(C)C)NC(=O)[C@H](CCCCN)NC(=O)[C@H](CC(C)C)NC(=O)[C@@H](N)Cc1ccccc1)C(=O)N[C@@H](CCCCN)C(=O)N[C@@H](CC(C)C)C(=O)N[C@@H](CC(C)C)C(N)=O (some centres unmarked) [Feleucin-K71] (H-FLKLL[ξαMeGly(pent-4-enyl)]KLL-NH2)" tgt="A. baumannii ATCC 19606" recorded_measurement="4 µg/mL"
molecule="C=CCCCC(C)(NC(=O)[C@H](CC(C)C)NC(=O)[C@H](CCCCN)NC(=O)[C@H](CCCCN)NC(=O)[C@H](CC(C)C)NC(=O)[C@H](CC(C)C)NC(=O)[C@H](CCCCN)NC(=O)[C@H](CC(C)C)NC(=O)[C@@H](N)Cc1ccccc1)C(N)=O (some centres unmarked) [Feleucin-K70] (H-FLKLLKKL[ξαMeGly(pent-4-enyl)]-NH2)" tgt="A. baumannii ATCC 19606" recorded_measurement="8 µg/mL"

Record C=CCCCC(C)(N)C(=O)N[C@@H](CC(C)C)C(=O)N[C@@H](CCCCN)C(=O)N[C@@H](CC(C)C)C(=O)N[C@@H](CC(C)C)C(=O)N[C@@H](CCCCN)C(=O)N[C@@H](CCCCN)C(=O)N[C@@H](CC(C)C)C(=O)N[C@@H](CC(C)C)C(N)=O (some centres unmarked) [Feleucin-K65] (H-[ξαMeGly(pent-4-enyl)]LKLLKKLL-NH2) : what is its MIC, A. baumannii ATCC 19606 with A. baumannii ATCC 19606?
4 µg/mL

Field entry: C=CCCCC(C)(NC(=O)[C@@H](N)Cc1ccccc1)C(=O)N[C@@H](CCCCN)C(=O)N[C@@H](CC(C)C)C(=O)N[C@@H](CC(C)C)C(=O)N[C@@H](CCCCN)C(=O)N[C@@H](CCCCN)C(=O)N[C@@H](CC(C)C)C(=O)N[C@@H](CC(C)C)C(N)=O (some centres unmarked) [Feleucin-K67] (H-F[ξαMeGly(pent-4-enyl)]KLLKKLL-NH2)
4 µg/mL

Field entry: C=CCCCC(C)(NC(=O)[C@H](CCCCN)NC(=O)[C@H](CCCCN)NC(=O)[C@H](CC(C)C)NC(=O)[C@H](CC(C)C)NC(=O)[C@H](CCCCN)NC(=O)[C@H](CC(C)C)NC(=O)[C@@H](N)Cc1ccccc1)C(=O)N[C@@H](CC(C)C)C(N)=O (stereo partly drawn) [Feleucin-K69] (H-FLKLLKK[ξαMeGly(pent-4-enyl)]L-NH2)
8 µg/mL

Field entry: C=CCCCC(C)(N)C(=O)N[C@@H](CC(C)C)C(=O)N[C@@H](CCCCN)C(=O)N[C@@H](C)C(=O)N[C@@H](CCCCN)C(=O)N[C@@H](CCCCN)C(=O)N[C@@H](CC(C)C)C(=O)N[C@@H](CC(C)C)C(N)=O (some centres unmarked) [Feleucin-K66] (H-[ξαMeGly(pent-4-enyl)]LKAKKLL-NH2)
>128 µg/mL

Field entry: C=CCCCC(C)(NC(=O)[C@H](CC(C)C)NC(=O)[C@H](CCCCN)NC(=O)[C@H](CC(C)C)NC(=O)[C@@H](N)Cc1ccccc1)C(=O)N[C@@H](CCCCN)C(=O)N[C@@H](CCCCN)C(=O)N[C@@H](CC(C)C)C(=O)N[C@@H](CC(C)C)C(N)=O (some centres unmarked) [Feleucin-K68] (H-FLKL[ξαMeGly(pent-4-enyl)]KKLL-NH2)
4 µg/mL

###

- Tested on: A. baumannii 9896
- Assay type: cell-based, Acinetobacter baumannii
- Stated Conditions: 9896, 18 h
Square brackets hold non-standard residues; d marks the D form. Peptide text beside a SMILES is read from it. ξ: configuration not given here. ξαMeGly(pent-4-enyl) = C=CCCCC(C)(N)C(=O)O
Property Name: MIC, A. baumannii 9896 (µg/mL)
Number only, in µg/mL; omit the unit.

Example cases with answers are listed next.
compound="C=CCCCC(C)(NC(=O)[C@H](CC(C)C)NC(=O)[C@H](CCCCN)NC(=O)[C@H](CCCCN)NC(=O)[C@H](CC(C)C)NC(=O)[C@H](CC(C)C)NC(=O)[C@H](CCCCN)NC(=O)[C@H](CC(C)C)NC(=O)[C@@H](N)Cc1ccccc1)C(N)=O (stereo partly drawn) [Feleucin-K70] (H-FLKLLKKL[ξαMeGly(pent-4-enyl)]-NH2)" recorded_measurement=4
compound="C=CCCCC(C)(NC(=O)[C@@H](N)Cc1ccccc1)C(=O)N[C@@H](CCCCN)C(=O)N[C@@H](CC(C)C)C(=O)N[C@@H](CC(C)C)C(=O)N[C@@H](CCCCN)C(=O)N[C@@H](CCCCN)C(=O)N[C@@H](CC(C)C)C(=O)N[C@@H](CC(C)C)C(N)=O (stereo partly drawn) [Feleucin-K67] (H-F[ξαMeGly(pent-4-enyl)]KLLKKLL-NH2)" recorded_measurement=4
compound="C=CCCCC(C)(NC(=O)[C@H](CC(C)C)NC(=O)[C@H](CC(C)C)NC(=O)[C@H](CCCCN)NC(=O)[C@H](CC(C)C)NC(=O)[C@@H](N)Cc1ccccc1)C(=O)N[C@@H](CCCCN)C(=O)N[C@@H](CC(C)C)C(=O)N[C@@H](CC(C)C)C(N)=O (stereo partly drawn) [Feleucin-K71] (H-FLKLL[ξαMeGly(pent-4-enyl)]KLL-NH2)" recorded_measurement=8
compound="C=CCCCC(C)(NC(=O)[C@H](CC(C)C)NC(=O)[C@H](CCCCN)NC(=O)[C@H](CC(C)C)NC(=O)[C@@H](N)Cc1ccccc1)C(=O)N[C@@H](CCCCN)C(=O)N[C@@H](CCCCN)C(=O)N[C@@H](CC(C)C)C(=O)N[C@@H](CC(C)C)C(N)=O (stereo partly drawn) [Feleucin-K68] (H-FLKL[ξαMeGly(pent-4-enyl)]KKLL-NH2)" recorded_measurement=4
compound="C=CCCCC(C)(N)C(=O)N[C@@H](CC(C)C)C(=O)N[C@@H](CCCCN)C(=O)N[C@@H](CC(C)C)C(=O)N[C@@H](CC(C)C)C(=O)N[C@@H](CCCCN)C(=O)N[C@@H](CCCCN)C(=O)N[C@@H](CC(C)C)C(=O)N[C@@H](CC(C)C)C(N)=O (stereo partly drawn) [Feleucin-K65] (H-[ξαMeGly(pent-4-enyl)]LKLLKKLL-NH2)" recorded_measurement=4

We next turn to a different compound, shown below.
Record C=CCCCC(C)(NC(=O)[C@H](CCCCN)NC(=O)[C@H](CCCCN)NC(=O)[C@H](CC(C)C)NC(=O)[C@H](CC(C)C)NC(=O)[C@H](CCCCN)NC(=O)[C@H](CC(C)C)NC(=O)[C@@H](N)Cc1ccccc1)C(=O)N[C@@H](CC(C)C)C(N)=O (stereo partly drawn) [Feleucin-K69] (H-FLKLLKK[ξαMeGly(pent-4-enyl)]L-NH2) : what is its MIC, A. baumannii 9896 with A. baumannii 9896?
8

###

This section presents compounds with their documented MIC, A. baumannii 9234 values.
- Test system: A. baumannii 9234
- Assay type: cell-based, Acinetobacter baumannii
- Stated Conditions: 9234, 18 h
- Procedure: The minimum inhibitory concentration (MIC) of the Feleucin-K3 analogs was tested by the broth microdilution method. Sensitive bacteria and drug-resistant bacteria were diluted to 1 × 10^6 CFU/mL, according to the McFarland standards. Bacterial suspension and peptide solutions (8–128 μg/mL) were incubated at 37 °C for 18 h. The minimum concentration without obvious bacterial growth was the MIC of the peptides. The stability of the analogs in a physiological salt environment was also investigated. […]
Square brackets hold non-standard residues; d marks the D form. Peptide text beside a SMILES is read from it. ξ: configuration not given here. ξαMeGly(pent-4-enyl) = C=CCCCC(C)(N)C(=O)O
Number only, in µg/mL; omit the unit.

Example cases with answers are listed next.
compound="C=CCCCC(C)(NC(=O)[C@H](CC(C)C)NC(=O)[C@H](CCCCN)NC(=O)[C@H](CCCCN)NC(=O)[C@H](CC(C)C)NC(=O)[C@H](CC(C)C)NC(=O)[C@H](CCCCN)NC(=O)[C@H](CC(C)C)NC(=O)[C@@H](N)Cc1ccccc1)C(N)=O (stereo partly drawn) [Feleucin-K70] (H-FLKLLKKL[ξαMeGly(pent-4-enyl)]-NH2)" recorded_measurement=8
compound="C=CCCCC(C)(N)C(=O)N[C@@H](CC(C)C)C(=O)N[C@@H](CCCCN)C(=O)N[C@@H](CC(C)C)C(=O)N[C@@H](CC(C)C)C(=O)N[C@@H](CCCCN)C(=O)N[C@@H](CCCCN)C(=O)N[C@@H](CC(C)C)C(=O)N[C@@H](CC(C)C)C(N)=O (stereo partly drawn) [Feleucin-K65] (H-[ξαMeGly(pent-4-enyl)]LKLLKKLL-NH2)" recorded_measurement=4

Any idea what MIC, A. baumannii 9234 was measured for C=CCCCC(C)(NC(=O)[C@H](CCCCN)NC(=O)[C@H](CCCCN)NC(=O)[C@H](CC(C)C)NC(=O)[C@H](CC(C)C)NC(=O)[C@H](CCCCN)NC(=O)[C@H](CC(C)C)NC(=O)[C@@H](N)Cc1ccccc1)C(=O)N[C@@H](CC(C)C)C(N)=O (stereo partly drawn) [Feleucin-K69] (H-FLKLLKK[ξαMeGly(pent-4-enyl)]L-NH2) ?
8
